molecular target: human Claudin-6 (CLDN6) (human) (UniProt P56747); assay: FACS, limiting dilution, UMUC4 cells
Please go through the items and note down their FACS signal at 1.6 nM.
Answers are plain numbers.

Binder: AB S2 (antibody, V domains shown) VH: EVQLLESGGGLVQPGGSMRLSCAASGFTFSNYWMNWVRQAPGKGLEWIAQIRLKSDNYATHYADSVKGRFTISRDDSKRTVYLQMNSLRAEDTGTYYCSDGPPSGSWGQGTLLTVSS VL: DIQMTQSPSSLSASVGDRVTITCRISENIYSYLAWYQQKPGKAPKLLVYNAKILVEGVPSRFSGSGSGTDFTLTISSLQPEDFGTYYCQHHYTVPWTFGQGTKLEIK
FACS signal at 1.6 nM: 746

Binder: AB S6 (antibody, V domains shown) VH: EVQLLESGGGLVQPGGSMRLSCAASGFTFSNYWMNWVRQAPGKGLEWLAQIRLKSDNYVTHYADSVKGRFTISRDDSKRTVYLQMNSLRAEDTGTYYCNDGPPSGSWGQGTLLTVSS VL: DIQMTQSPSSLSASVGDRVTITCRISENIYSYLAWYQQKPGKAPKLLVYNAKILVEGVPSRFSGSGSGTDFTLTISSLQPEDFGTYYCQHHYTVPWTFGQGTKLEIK
FACS signal at 1.6 nM: 1690

Binder: AB S4 (antibody, V domains shown) VH: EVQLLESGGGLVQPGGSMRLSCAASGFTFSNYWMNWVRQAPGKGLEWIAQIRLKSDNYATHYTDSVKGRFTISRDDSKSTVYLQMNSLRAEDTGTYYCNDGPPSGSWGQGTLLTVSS VL: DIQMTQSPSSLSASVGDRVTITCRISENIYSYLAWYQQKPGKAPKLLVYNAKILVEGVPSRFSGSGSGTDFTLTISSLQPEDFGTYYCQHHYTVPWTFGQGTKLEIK
FACS signal at 1.6 nM: 651

Binder: AB S11 (antibody, V domains shown) VH: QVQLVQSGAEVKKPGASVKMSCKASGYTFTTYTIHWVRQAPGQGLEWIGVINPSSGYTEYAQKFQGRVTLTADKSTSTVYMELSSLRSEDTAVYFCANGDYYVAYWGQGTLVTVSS VL: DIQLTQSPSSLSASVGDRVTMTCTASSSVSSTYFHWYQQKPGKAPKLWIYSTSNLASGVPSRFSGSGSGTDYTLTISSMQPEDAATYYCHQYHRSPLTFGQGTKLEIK
FACS signal at 1.6 nM: 2770

Binder: AB S1 (antibody, V domains shown) VH: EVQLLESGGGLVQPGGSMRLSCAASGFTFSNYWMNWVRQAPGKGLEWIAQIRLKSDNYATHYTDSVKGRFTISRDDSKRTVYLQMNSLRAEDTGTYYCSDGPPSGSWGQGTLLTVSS VL: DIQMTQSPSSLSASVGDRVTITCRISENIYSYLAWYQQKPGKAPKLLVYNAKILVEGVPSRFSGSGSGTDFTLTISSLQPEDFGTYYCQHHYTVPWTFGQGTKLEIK
FACS signal at 1.6 nM: 767

Kindly review the next binder as well.
Problem: Fill in reported FACS signal at 1.6 nM for this entry: AB S10 (antibody, V domains shown) VH: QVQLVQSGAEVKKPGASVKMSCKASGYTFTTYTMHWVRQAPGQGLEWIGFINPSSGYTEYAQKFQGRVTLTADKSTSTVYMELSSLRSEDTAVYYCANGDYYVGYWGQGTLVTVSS VL: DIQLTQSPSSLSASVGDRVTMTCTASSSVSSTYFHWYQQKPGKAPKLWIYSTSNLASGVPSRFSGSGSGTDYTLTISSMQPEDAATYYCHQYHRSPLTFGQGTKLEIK
Solution: 2540
